- testSummary: Acute toxicity in rats
- Parameters: species or system Sprague Dawley albino rats
- testParameters: rat, in vivo, oral, max. dose 6250 mg/kg
measureName: mortality at 240 h (%)
Field format: number, assumed %, no unit text.

In: // returns reported mortality at 240 h for input N[C@H]1C(O)O[C@H](CO)[C@@H](O)[C@@H]1O (stereo partly shown)
Out: 0

* * *

- testSummary: Acute toxicity in mice
- Set-up: species or system Swiss NMRI mice
- testParameters: mouse, in vivo, iv, endovenous, 10 days observation, read-out: DL50
measureName: LD50 at 240 h

- compound: "N[C@H]1C(O)O[C@H](CO)[C@@H](O)[C@@H]1O (some centres unmarked) [Glucosamine-SP]"
  LD50 at 240 h: "> 1880 mg/kg"

For the next question, use this compound.
In: // returns reported LD50 at 240 h for input N[C@H]1C(O)O[C@H](CO)[C@@H](O)[C@@H]1O.O=S(=O)(O)O (some centres unmarked) [Glucosamine sulphate, glucosamine sulphate]
Out: > 1500 mg/kg
